The measurements presented in this section are drawn from patent US20100144729A1.

Target: S1P1 (EDG-1) (Homo sapiens)
Construct: c-myc (N); homogenized membranes
Assay: GPCR activation assay measuring GTP [γ-35S] binding to membranes from CHO cells expressing human EDG receptors (S1P1)
Details: CHO cell membranes expressing human EDG-1, read-out: S1P-1 EC50
Experimental: A.1 In Vitro: GPCR Activation Assay Measuring GTP [γ-^35S] Binding to Membranes Prepared From CHO Cells Expressing Human EDG Receptors S1P1 (EDG-1) GTP [γ-^35S] binding assay: Homogenized membranes are prepared from CHO cell clones stably expressing a human EDG-1 N-terminal c-myc tag. […] Protein concentration of the preparation is determined using the BCA Protein Assay kit (Pierce) using BSA as standard. […]
Readout: pEC50
Value format note: pEC50 is -log10 of concentration (mol/L); just state the number.

# annotated cases, reported pEC50 shown
CCOc1ccc2cc(C(=O)Nc3ccc([C@H]4CCCN4)cc3F)c(=O)oc2c1OCC	7.89
CCc1c(OC)ccc2cc(C(=O)Nc3ccc([C@H]4CCCN4)cc3C)c(=O)oc12	9.30
COc1ccc2cc(C(=O)Nc3ccc(C4CCCCN4)cc3)c(=O)oc2c1OC(C)C (single isomer, unassigned)	7.12
CCc1c(OC)ccc2cc(C(=O)Nc3ccc(C4CNCCN4)cc3)c(=O)oc12 (single isomer, unassigned)	9.70
CCCc1c(OC)ccc2cc(C(=O)Nc3ccc(C4CCCN4)cc3)c(=O)oc12 (stereo not shown)	10.00

Now for a further compound.
Query string: Please give measured pEC50 of the following entry: Cc1cc([C@H]2CCCN2)ccc1NC(=O)c1cc2ccc(OC(C)C)c(OC(C)C)c2oc1=O
Result string: 8.62

====

Target: S1P-2 (Homo sapiens)
Sequence (O95136 whole entry): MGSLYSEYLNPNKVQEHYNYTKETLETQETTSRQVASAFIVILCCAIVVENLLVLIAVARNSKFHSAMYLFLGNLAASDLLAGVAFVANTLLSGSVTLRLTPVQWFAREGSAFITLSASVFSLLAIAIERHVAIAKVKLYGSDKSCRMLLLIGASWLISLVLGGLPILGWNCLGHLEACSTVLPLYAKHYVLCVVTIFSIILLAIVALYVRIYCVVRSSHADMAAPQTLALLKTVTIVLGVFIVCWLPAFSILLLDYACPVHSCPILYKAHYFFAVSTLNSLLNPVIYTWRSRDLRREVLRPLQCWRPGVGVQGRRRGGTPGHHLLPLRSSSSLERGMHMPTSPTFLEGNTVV
Assay: FLIPR calcium flux assay, S1P-2
Conditions: CHO cells expressing S1P receptor
Readout: EC50

Query string: Please indicate recorded EC50 of CCCc1c(OC)ccc2cc(C(=O)Nc3ccc(C4CCCN4C)cc3)c(=O)oc12 (racemic) measured with S1P-2 (Homo sapiens).
Result string: > 1 µM

====

Target: S1P-1 (Homo sapiens, UniProt P21453)
Sequence (P21453 whole entry): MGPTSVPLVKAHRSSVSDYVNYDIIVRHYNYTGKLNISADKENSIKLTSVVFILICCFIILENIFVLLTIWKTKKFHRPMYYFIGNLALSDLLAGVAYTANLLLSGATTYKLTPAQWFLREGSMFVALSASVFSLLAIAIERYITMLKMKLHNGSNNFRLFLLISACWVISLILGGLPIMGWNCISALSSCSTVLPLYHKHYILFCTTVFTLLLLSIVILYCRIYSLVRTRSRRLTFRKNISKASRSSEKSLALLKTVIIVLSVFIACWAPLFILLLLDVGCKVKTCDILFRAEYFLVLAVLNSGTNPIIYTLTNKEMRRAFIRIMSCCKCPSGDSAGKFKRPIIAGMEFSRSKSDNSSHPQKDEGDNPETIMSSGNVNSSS
Test: FLIPR calcium flux assay, S1P-1
Conditions: CHO cells expressing S1P receptor
Readout: EC50 (nM)
Output spec: scalar in nM, unitless text.

Query string: Please indicate recorded EC50 of CCCc1c(OC)ccc2cc(C(=O)Nc3ccc(C4CCCN4C)cc3)c(=O)oc12 (racemic) measured with S1P-1 (Homo sapiens, UniProt P21453).
Result string: 92

====

Target: S1P1 (EDG-1) (Homo sapiens, UniProt P21453)
Construct: c-myc (N); homogenized membranes
Sequence (P21453 whole entry): as above
Experiment: GPCR activation assay measuring GTP [γ-35S] binding to membranes from CHO cells expressing human EDG receptors (S1P1)
Details: CHO cell membranes expressing human EDG-1, read-out: S1P-1 EC50
Readout: EC50 (nM)
Output spec: scalar in nM, unitless text.

# annotated cases, reported EC50 shown
CCOc1c(OC)ccc2cc(C(=O)Nc3ccc([C@H]4CCCN4)cc3)c(=O)oc12	7.5
COc1ccc2cc(C(=O)Nc3ccc(C4CNCCO4)cc3)c(=O)oc2c1OC(C)C (single isomer, unassigned)	2.9
CCOc1c(OC)ccc2cc(C(=O)Nc3ccc(C4CNCCN4)cc3)c(=O)oc12 (single isomer, unassigned)	4.6

Query string: Please indicate recorded EC50 of COc1ccc2cc(C(=O)Nc3ccc([C@H]4COCCN4)c(C)c3)c(=O)oc2c1OC(C)C measured with S1P1 (EDG-1) (Homo sapiens, UniProt P21453).
Result string: 6.2
